# reported viability at 28.5 h, 10 µM; entries follow
- experimental.details: in vitro
- setup.conditions: human, hela cells, % viability
The answer is to be given in %; state only the numeric part.

COc1cc(/C=C(/C#N)c2ccc(C(=O)O)cc2)cc(Br)c1OCC(=O)O    92.3
CC(=O)N1CCC(C(=O)NC(=O)NCc2ccc3c(c2)CCO3)CC1    93.8
Cc1ccc(-c2nc3ncccc3o2)cc1NC(=O)c1ccc(-c2cccc([N+](=O)[O-])c2)o1    90.7
CCn1cc(C(=O)NN)c(=O)c2cc(F)c(N3CCOCC3)cc21    99.9

Report viability at 28.5 h, 10 µM for "CCN(CC)CCNC(=O)c1c(C)[nH]c(/C=C2\C(=O)Nc3ccc(F)cc32)c1C" please. 50.7

Entry to check: COc1ccc(C(=O)C(C)OC(=O)c2ccc3ccccc3n2)cc1 (stereo not shown) 99

And then "CC(=O)Nc1ccc(S(=O)(=O)N2CCN(C(=O)COc3ccc4ccccc4c3)CC2)cc1" , what is it? 103

Can you handle CCN1CCN(CCOc2c(OC)cccc2OC)CC1 [CBK267375G] next? 96.9

// next record "O=C(O)CCc1ccc(-c2ccc(F)cc2)n1CCc1ccccc1" 108

Same again, this time with Cc1cc(C)nc(-n2ncc3c2CC(c2cccs2)CC3=O)n1 (stereo not shown) 107

Same question for "CN(Cc1cccc(Oc2ccccc2)c1)Cc1cccc2ccccc12" please. 96.9

Another: CC(C)c1ccc(S(=O)(=O)N(c2ccccc2)C2CCNCC2)cc1 [CBK165088T] 108

Cool, now OC(CN1CCC(O)(c2ccc(C(F)(F)F)cc2)CC1)c1ccccc1 (stereo not shown) 102

Follow-up item: "c1ccc2c(c1)[nH]c1nc(SCCN3CCCCC3)nnc12" 88.7

Try "O=C1Nc2cc(Cl)ccc2C(=O)N2CC[C@H](NC(=O)N3CCOCC3)[C@@H]12" next. 87.7

Likewise for "O=[N+]([O-])c1ccc(-c2ccc(/C=C/c3cc(O)c4ccccc4n3)o2)cc1" ? 92.1

Try this compound too: COc1cc(C(=O)N2CCN(Cc3c[nH]c4ccccc34)CC2)cc(OC)c1OC [CBK301212G] 77.7

Would you kindly repeat that for "CC(C)(C)CC(=O)N1C[C@@H]2C[C@H](C1)c1ccc(NS(=O)(=O)c3cccs3)c(=O)n1C2" ? 80.6

Then this compound: COc1ccc(-c2ncc(OCC3CCCN3C)nc2N)c(OC)c1 (stereo not shown) 88.9
